molecular target: UniProt P11388; experiment: Inhibition of human recombinant DNA topoisomerase 2alpha at 100 uM assessed as relaxation of supercoiled DNA pBR322 after 30 mins by Agarose gel electrophoresis
Sequence (P11388 whole entry): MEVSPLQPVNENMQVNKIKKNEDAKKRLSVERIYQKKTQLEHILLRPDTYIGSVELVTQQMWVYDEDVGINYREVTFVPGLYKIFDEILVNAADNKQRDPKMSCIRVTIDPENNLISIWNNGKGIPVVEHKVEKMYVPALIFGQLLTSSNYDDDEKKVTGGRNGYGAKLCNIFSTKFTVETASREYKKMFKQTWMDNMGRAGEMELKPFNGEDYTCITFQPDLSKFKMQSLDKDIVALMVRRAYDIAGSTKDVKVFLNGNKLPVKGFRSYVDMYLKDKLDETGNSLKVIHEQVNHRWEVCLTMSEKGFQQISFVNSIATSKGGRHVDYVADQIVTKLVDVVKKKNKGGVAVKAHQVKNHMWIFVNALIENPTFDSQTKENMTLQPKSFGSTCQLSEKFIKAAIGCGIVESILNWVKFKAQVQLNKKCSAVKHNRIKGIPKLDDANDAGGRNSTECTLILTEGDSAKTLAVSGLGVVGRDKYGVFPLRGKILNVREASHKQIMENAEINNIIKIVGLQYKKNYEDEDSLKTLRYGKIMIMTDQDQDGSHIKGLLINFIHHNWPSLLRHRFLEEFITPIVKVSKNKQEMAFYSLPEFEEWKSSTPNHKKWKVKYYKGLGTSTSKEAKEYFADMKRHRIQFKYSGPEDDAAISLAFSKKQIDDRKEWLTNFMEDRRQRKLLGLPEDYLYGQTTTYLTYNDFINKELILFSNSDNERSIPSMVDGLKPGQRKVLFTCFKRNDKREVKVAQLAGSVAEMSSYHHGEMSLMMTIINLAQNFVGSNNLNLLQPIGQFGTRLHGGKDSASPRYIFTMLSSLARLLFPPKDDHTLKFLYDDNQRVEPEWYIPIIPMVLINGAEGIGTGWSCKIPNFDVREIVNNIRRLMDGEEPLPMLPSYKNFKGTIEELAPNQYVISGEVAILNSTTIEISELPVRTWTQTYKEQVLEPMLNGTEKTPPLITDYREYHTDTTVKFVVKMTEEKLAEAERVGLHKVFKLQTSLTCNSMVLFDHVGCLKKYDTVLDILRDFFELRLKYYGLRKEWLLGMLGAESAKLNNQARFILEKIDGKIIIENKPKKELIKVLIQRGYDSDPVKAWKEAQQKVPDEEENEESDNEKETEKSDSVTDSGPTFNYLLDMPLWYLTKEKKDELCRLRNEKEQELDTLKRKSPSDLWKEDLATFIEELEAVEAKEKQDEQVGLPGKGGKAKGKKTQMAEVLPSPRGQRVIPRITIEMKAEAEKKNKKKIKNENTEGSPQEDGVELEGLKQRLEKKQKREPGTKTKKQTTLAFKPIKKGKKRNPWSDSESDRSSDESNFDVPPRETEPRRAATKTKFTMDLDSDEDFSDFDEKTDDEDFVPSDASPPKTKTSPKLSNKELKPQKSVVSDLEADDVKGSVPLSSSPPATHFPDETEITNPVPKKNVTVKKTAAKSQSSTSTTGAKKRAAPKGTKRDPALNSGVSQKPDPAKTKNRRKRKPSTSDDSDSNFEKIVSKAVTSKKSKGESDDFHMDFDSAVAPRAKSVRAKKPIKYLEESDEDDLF
ASSAY_READOUT: inhibition (%)

Check out these entries, answers already filled in.
{"SUBSTANCE_SMILES": "Oc1ccc(-c2cc(-c3ccccc3)c3c(n2)-c2ccccc2C3)cc1", "MEASURE_UNIT": "%", "inhibition": 80.6}
{"SUBSTANCE_SMILES": "Oc1ccc(-c2cc(-c3cccc(Cl)c3)nc3c2Cc2ccccc2-3)cc1", "MEASURE_UNIT": "%", "inhibition": 3}
{"SUBSTANCE_SMILES": "Oc1ccc(-c2cc(-c3ccc(Cl)cc3)nc3c2Cc2ccccc2-3)cc1", "MEASURE_UNIT": "%", "inhibition": 3.2}
{"SUBSTANCE_SMILES": "Oc1cccc(-c2cc(-c3ccc(Cl)cc3)c3c(n2)-c2ccccc2C3)c1", "MEASURE_UNIT": "%", "inhibition": 3.8}
{"SUBSTANCE_SMILES": "Oc1ccc(-c2cc(-c3ccc(Cl)cc3)c3c(n2)-c2ccccc2C3)cc1", "MEASURE_UNIT": "%", "inhibition": 8.5}
{"SUBSTANCE_SMILES": "Oc1ccccc1-c1cc(-c2cccc(Cl)c2)nc2c1Cc1ccccc1-2", "MEASURE_UNIT": "%", "inhibition": 5.4}
{"SUBSTANCE_SMILES": "c1ccc(-c2cc(-c3ccccc3)c3c(n2)-c2ccccc2C3)cc1", "MEASURE_UNIT": "%", "inhibition": 17.8}

I. Oc1ccccc1-c1cc(-c2ccccc2)nc2c1Cc1ccccc1-2
II. Oc1ccccc1-c1cc(-c2ccccc2Cl)nc2c1Cc1ccccc1-2
III. Oc1ccccc1-c1cc(-c2ccccc2)c2c(n1)-c1ccccc1C2
// query Arrange these compounds by their inhibition, starting with the largest number. Response format: the labels, sorted as the prompt asks.
// result I, III, II
